Tested on: HCT-116 colon
Assay: NCI tumour cell line growth inhibition, 48 h
# maps each entry to its TGI
property.label: TGI (µM)

In [3]: df
Out[3]:
                                    molecule  units_text  comparator  value_reported
 0  Cc1ccccc1-n1c2nc(=O)n(C)c(=O)c-2nc2ccccc21          µM           =            28.3
 1                  CN1CCN(C)C12C=CC=CC21CC1          µM           >             100
 2     Cc1ccc2c(c1)S(=O)(=O)c1ccc3ccccc3c1N2          µM           >             100
 3  O=C(O)c1ccc(C2SCc3nc4ccccc4n32)cc1 (stereo unspecified)          µM           >             100
 4  CC(C)(C)c1c2c(c(C(C)(C)C)c3c1OCN(Cc1ccccc1)C3)OCN(Cc1ccccc1)C2          µM           =            24.4
 5  CC(=O)OC1CC2C3CCC4C[C@@H](NC(=O)C=C(C)C)CC[C@]4(C)C3CC[C@]2(C)[C@H]1C(C)N(C)C (stereo partly specified)          µM           =            2.22
 6  COc1ccc2nc3cc(Cl)ccc3c(Sc3ccc([N+](=O)[O-])cc3)c2c1          µM           >             100
 7                      O=C(CCCl)NNC1=NCCCN1          µM           >             100
 8  CCCCCCCCn1ccc2cc(NC(=O)Cn3cc(CN4CCCCC4)nn3)ccc21          µM           =            3.19
 9  C=C(C(=C)P(=S)(c1ccccc1)c1ccccc1)P(=S)(c1ccccc1)c1ccccc1          µM           >             100
10             COC(=O)/C=C/C1(O)C=CC(=O)C=C1          µM           =            3.73

* * *

Tested on: NCI/ADR-RES ovarian
Assay: NCI tumour cell line growth inhibition, 48 h; in the data active means GI50 below about 0.43 µM; inactive means the rest
Outcome codes: active, inactive

>>> df
                                   molecule  qualitative_label
0              OCc1ccc(N2CCc3ccccc3C2)cc1Cl           inactive
1  COc1cc(/C=C2\C[C@H]3[C@@H]4CC=C5C[C@@H](O)CC[C@]5(C)[C@H]4CC[C@]3(C)[C@H]2O)ccc1OCCCn1ccnc1           inactive
2  CN(C)c1ccc(/C=C/C2=[N+](C)c3ccccc3C2(C)C)cc1           inactive
3  Cn1c(NCC(O)CN2CCCC2)cc(=O)n(C)c1=O (configuration not stated)           inactive
4  CC(=O)c1cc(C(=O)c2ccc3c(c2)Sc2ccccc2N3)c2cc(C)ccn12             active
5  O=S(=O)(/N=c1/scc(-c2ccccc2)n1-c1ccccc1)c1ccc(N2N=C3c4ccccc4CC3C2c2cccs2)cc1 (configuration not stated)           inactive
6  NC(N)=N/N=C/c1ccc(-c2ccc(-c3cc(Cl)cc(Cl)c3)s2)cc1           inactive

* * *

# maps each entry to its TGI
Test system: SK-MEL-2 melanoma
Assay: NCI tumour cell line growth inhibition, 48 h
property.label: TGI (µM)

>>> print(df.to_string())
                                   molecule  property_label  comparator  value_reported
0   COc1ccc(/C=C/C(=O)c2ccc(OC)c(OC)c2)cc1O             TGI           =            32.9
1  CCOC(=O)C(C(=S)SC)c1nn2c(=O)cc(C)nc2s1 (stereo not given)             TGI           =            41.5
2  O=C1C(Cl)N(c2cccc([N+](=O)[O-])c2)C1c1c[nH]c2ccccc12 (stereo not given)             TGI           =            27.5
3  COc1ccc2[nH]c3c(C)c4ccnc(NCCCN(C)CCCNc5ccc6ncn7c8ccccc8c(=O)c5c67)c4c(C)c3c2c1             TGI           =            8.74
4   Cc1cccc(-c2cc(=O)c3c(C)cc(C)nc3[nH]2)c1             TGI           >             100
5  COc1ccc(C(=O)C(c2ccc(OCc3ccccc3)cc2)c2ccc(OCc3ccccc3)cc2)cc1             TGI           >             100
6  CCOC(=O)C(=O)/C(=C/N1C(=O)CC(=O)NC1=S)C(=O)OCC             TGI           >             100
7         CCN1Cc2nc3sc(C)c(C)c3c(=O)n2C=C1C             TGI           >             100
8  CC(C)(C)C1=CC(=C2C(=O)C(=O)c3ccccc3C2=O)C=C(C(C)(C)C)C1=O             TGI           >             100
9  O=C(O)CC(Sc1ccccc1)c1ccccc1 (stereo not given)             TGI           >             100

* * *

System: U251 CNS
Test: NCI tumour cell line growth inhibition, 48 h
property.label: log10 of TGI (log10 of the value in µM)

molecule	log10 of TGI
COc1cc(/C=C2\C[C@H]3[C@@H]4CC=C5C[C@@H](O)CC[C@]5(C)[C@H]4CC[C@]3(C)[C@H]2O)ccc1OCCCn1ccnc1	0.24
CCOC(=O)C(NC(=O)c1ccccc1)(Nc1ccc(Cl)cc1C(F)(F)F)C(F)(F)F (stereo not given)	1.28
COc1ccc(C2C3CCc4ccccc4C3=NN2S(=O)(=O)c2ccc(/C=C/C(=O)O)cc2)cc1 (stereo not given)	1.06
CCCCCCCCn1ccc2cc(NC(=O)Cn3cc(CN4CCCCC4)nn3)ccc21	0.52
Cn1c(/C=C/[N+](=O)[O-])cc2ccccc21	0.57
CC1CCC2(CC1)NC1=C(CC(C)CC1)C1=C2CC(C)CC1 (stereo not given)	1.53
CC(C)NC(=O)CCN(C(=O)O)S(=O)(=O)c1ccc(NC(=O)c2ccccc2)cc1	1.51
COc1cc([C@@H]2c3cc4c(cc3[C@@H](Nc3ccc(C(=O)N[C@H]5CCc6cc(OC)c(OC)c(OC)c6-c6ccc(SC)c(=O)cc65)cc3)[C@H]3COC(=O)[C@H]23)OCO4)cc(OC)c1O	1.18
O=C1C=C(OCCCCl)C(=O)c2c(O)ccc(O)c21	0.55

* * *

Test system: MOLT-4 leukemia
Experiment: NCI tumour cell line growth inhibition, 48 h; in the data active = GI50 below about 0.43 µM; inactive = the rest
Outcome codes: TRUE (active), FALSE (inactive)

compound	qualitative.label
COc1ccc(Nc2cc(C)nc(NCCCNc3ccnc4cc(Cl)ccc34)n2)cc1	FALSE
O=C(Nc1ccc(/C=C/c2ccc(NC(=O)c3cc(S(=O)(=O)O)c4cccnc4c3O)cc2S(=O)(=O)O)c(S(=O)(=O)O)c1)c1cc(S(=O)(=O)O)c2cccnc2c1O	FALSE
Cn1c(=O)c(Oc2ccc(F)cc2F)cc2cnc(NC3CCS(=O)(=O)CC3)nc21	FALSE
O=C(c1ccco1)c1c(C(F)(F)F)n([O-])c2ccc(Cl)cc2[n+]1=O	TRUE
COC1=CC(c2ccc[nH]2)=N/C1=C\c1[nH]c(C)c(C(=O)CCCCC(=O)Oc2ccc3c(c2)CCC2C3CC[C@]3(C)[C@@H](O)CC[C@@H]23)c1C (stereo partly drawn)	FALSE
CCCCCCCCCCCCCCCCC(=O)O.CCCCCCCCCCCCCCCCCC(=O)O.CCCCCCCCCCCCCCCCCC(=O)O.CCCCCCCCCCCCCCCCCC(=O)O.CCCCCCCCCCCCCCCCCC(=O)O.CO[CH-]OC12COC1CC(O)C1(C)C(O)C(OC(C)O)C3=C(C)C(OC(=O)C(O)C([NH-])c4ccccc4)CC(O)(C(OC(=O)c4ccccc4)C21)C3(C)C.[Cu+].[Zn].[Zn].[Zn].[Zn].[Zn] (stereo not drawn)	TRUE
Clc1cc(Cl)cc(N2N=C(c3cccc(Nc4ccncc4)c3)CC2c2ccc3c(c2)OCO3)c1 (stereo not drawn)	FALSE
CCOc1cccc(-c2nc(N)nc(Nc3ccccc3SSc3ccccc3Nc3nc(N)nc(-c4cccc(OCC)c4)n3)n2)c1	FALSE

* * *

Test system: HOP-92 NSCLC
Test: NCI tumour cell line growth inhibition, 48 h
# maps each entry to its TGI
property.label: TGI (µM)

>>> print(df.to_string())
                                   compound   target_desc  comparator  value_reported
0  CC1OC(OC2C(OC3CCC4(C)C(CCC5(C)C4CC=C4C6CC(C)(C)CCC6(C(=O)O)CCC45C)C3(C)CO)OCC(O)C2O)C(O)C(O)C1O (stereo not given)  HOP-92 NSCLC           =            27.3
1  Clc1ccc(-c2cc(-c3ccccc3)nc(NCCNc3ccnc4cc(Cl)ccc34)n2)cc1  HOP-92 NSCLC           =             2.8
2   O=C(O)C12CCCCC1CCCC2 (stereo not given)  HOP-92 NSCLC           >             100
3    COc1ccc2nc3ccc(OC)cc3c(SCc3ccccc3)c2c1  HOP-92 NSCLC           >             100
4  Cc1cc(C)nc(NS(=O)(=O)c2ccc(Nc3c4ccc(Cl)cc4nc4c(C(=O)NCCN(C)C)cccc34)cc2)n1  HOP-92 NSCLC           >             100
